# Test system: SRC
# condition_description: concentration: 1 μM, replicates: in singlicate; n = 1;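 note: KINOMEscan kinase panel screen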
%Inh values for the molecules below.
Write the answer as a number in %, unit excluded.

Known %Inh results, listed for orientation:
• Cc1nn2c(=O)cc(N3CCO[C@H](C)C3)nc2n1Cc1cccc(Cl)c1Cl = 19
• CCNC(=O)/C=C/c1n[nH]c2cc(Sc3ccccc3C(=O)NC)ccc12 = 7
• O=C1NC(=O)C(c2ccccc2Cl)=C1Nc1cccc(Cl)c1 = 0

Query molecule follows.
Qu. Consider the molecule CN(C)c1ncnc2nc[nH]c12 and give its measured %Inh.
Ans. 0

====

# Test system: PRKG1
# condition_description: concentration: 1 μM, replicates: in singlicate; n = 1
measurement_label: %Inh (%)
Write the answer as a number in %, unit excluded.

• CC(C)c1nc(-c2ccc(F)c(NS(=O)(=O)c3c(F)cccc3F)c2)c(-c2ccnc(Nc3ccc(N4CCOCC4)nc3)n2)s1 [GSK1804250] = 1
• CC(=O)Nc1cn2nc(Oc3cccc(NC(=O)c4cccc(C(F)(F)F)c4)c3)ccc2n1 = 11
• COC(=O)Nc1nc2cc(Oc3ccc(NC(=O)Nc4cccc(SC)c4)cc3)ccc2[nH]1.Cl [GW697999] = 1
• N#CC1(c2cccc(C(=O)Nc3cccc(Oc4ccc5nc(NC(=O)C6CC6)sc5n4)c3)c2)CC1 = 16
• CCn1cnc2c(NCc3ccccc3)ncnc21 [SKF-96418] = 0
• COc1cccc2c(-c3ccncc3)c(-c3ccc(F)cc3)nn12 [GW468513] = 0

Qu. Consider the molecule CNc1nccc(-c2ccc3c(N)n[nH]c3c2)n1 [GSK2206003] and give its measured %Inh.
Ans. 25

Qu. Consider the molecule Cc1ccc(NC(=O)c2cccc(N3CCCCC3)c2)cc1-c1ccc(C(=O)NCC2CC2)cc1 [GSK1917008] and give its measured %Inh.
Ans. 31
